System: HEK-293T
test-method-notes: Multiplex assay against HEK293T
Format: toxicity, cell-based
study-conditions: human, 48 h, 10 µM, compound concentration 10 uM, replicate 1
Cut-off 80% on Population Normal (%), inclusive. At or above means y; below means n.

Solved cases below.
# molecule, tested-target, category
data = [
    ("CCOC(=O)c1c(C)[nH]c2ccc3c(c12)CN1CCc2cc(OC)ccc2C1O3 (stereo not drawn)", "HEK-293T", "n"),
    ("Cl.Oc1ccc2c3c1O[C@H]1c4[nH]c5c(c4C[C@@]4(O)[C@@H](C2)N(CC2CC2)CC[C@]314)C[C@@]1(O)[C@H]2Cc3ccc(O)c4c3[C@@]1(CCN2CC1CC1)[C@H]5O4", "HEK-293T", "y"),
    ("CN(C)C(=O)C(CCN1CCC(O)(c2ccc(Cl)cc2)CC1)(c1ccccc1)c1ccccc1.Cl [LOPERAMIDE HYDROCHLORIDE]", "HEK-293T", "n"),
    ("O=C1N/C(=N/c2ccccc2F)S/C1=C\\c1ccc(C(=O)O)cc1", "HEK-293T", "y"),
    ("O=C(Nc1ccc(Cl)cc1)Nc1cccc(-c2cccc(N3CCCC3)n2)c1", "HEK-293T", "n"),
]

Turning now to a further molecule:
Test whether the molecule CCCS(=O)(=O)c1nc(NC2CC2)cc(-c2ccc3c(ccn3C3CC(C)(C)NC(C)(C)C3)c2)n1 records Population Normal (%) of 80% or higher.
y
